- Test system: HFL-1 cells
- procedure.details: IL8 assay in the presence of Human Serum Albumin
- Type: cell-based
- measurement.parameters: HFL1, S1P (5 μM) induced IL-8, HFL-1 cells, with 2% HSA, read-out: HSA IL8 EC50
pIC50: −log10 of the molar value.
So basically: pIC50 at 7 or higher? That is Yes. Lower than 7? That is No.

Is the recorded value of pIC50 equal to or greater than 7 for this molecule? CCOc1cc(NC(=O)NCc2cc(C)c(-c3cn(C)nc3C)nn2)cc(Cl)n1 No

Is the recorded value of pIC50 equal to or greater than 7 for this molecule? CCOc1nc(C)cc(NC(=O)NCc2cc(C)c(N3C[C@@H](C)O[C@@H](C)C3)nn2)c1Cl No

Is the recorded value of pIC50 equal to or greater than 7 for this molecule? CCOc1nc(C)cc(NC(=O)NCc2cc(C)c(-c3cn(C)nc3C(F)(F)F)nn2)c1C Yes

Is the recorded value of pIC50 equal to or greater than 7 for this molecule? Cc1cc(CNC(=O)Nc2cc(OCC3(C(F)(F)F)CC3)nc(C(F)(F)F)c2)nnc1-c1cn(C)nc1C(F)(F)F No

Is the recorded value of pIC50 equal to or greater than 7 for this molecule? Cc1cc(NC(=O)NCc2cc(C)c(-c3cn(C)nc3C(F)(F)F)nn2)cc(OCC(F)F)n1 No

----------
- target.under.test: human GPCR sphingosine 1-phosphate receptor 5 (S1PR5) (Homo sapiens)
- procedure.details: S1PR5 selectivity assay (Ca2+ flux, antagonist, S1PR5 specific agonist trigger)
- measurement.parameters: S1P5 antagonist EC50, CHO cells overexpressing human S1PR5 and Gq protein
Field: label. Allowed values: met (EC50 < 5 µM) or not met (EC50 >= 5 µM).

A selection of reference data follows.
molecule	assigned.class
CCOc1nc(C)cc(NC(=O)NCc2cc(C)c(N3C[C@@H](C)O[C@@H](C)C3)nn2)c1C [Compound 95]	met
CCOc1cc(NC(=O)NCc2cc(C)c(N3CC(C)OC(C)C3)nn2)cc(C(F)(F)F)n1 (stereo not shown) [Compound 87]	met
COc1cc(CNC(=O)Nc2cc(Cl)nc(OCC(F)F)c2)nnc1-c1cn(C)nc1C(F)(F)F [Compound 64]	met
CN(C)c1cc(CNC(=O)Nc2cc(Cl)nc(OCC(F)F)c2)nnc1-c1cn(C)nc1C(F)(F)F [Compound 63]	not met
CCOc1ncc(NC(=O)NCc2cc(C)c(-c3cn(C)nc3C(F)(F)F)nn2)cc1C(F)(F)F [Compound 10]	not met
CCOc1nc(C#N)cc(NC(=O)NCc2cc(C)c(-c3cn(C)nc3C(F)(F)F)nn2)c1C1CC1 [Compound 58]	not met

Strictly below 5 µM in EC50? CCOc1cc(NC(=O)NCc2cc(C)c(-c3cn(C)nc3C(F)(F)F)nn2)cnc1Cl [Compound 24] not met

Strictly below 5 µM in EC50? CCOc1nc(C#N)cc(NC(=O)NCc2cc(C)c(-c3cn(C)nc3C(F)(F)F)nn2)c1C [Compound 57] met

Strictly below 5 µM in EC50? CCOc1cc(NC(=O)NCc2cc(C)c(N3CC(C)O[C@H](C)C3)nn2)cc(C(F)(F)F)n1 (stereo in doubt) [Compound 100] met

Strictly below 5 µM in EC50? Cc1cc(CNC(=O)Nc2cc(OC3CCOC3)nc(C(F)(F)F)c2)nnc1-c1cn(C)nc1C(F)(F)F (stereo not shown) [Compound 26] not met

----------
Listed compounds paired with reported EC50
- target.under.test: human GPCR sphingosine 1-phosphate receptor 5 (S1PR5) (Homo sapiens)
- procedure.details: S1PR5 selectivity assay (Ca2+ flux, antagonist, S1PR5 specific agonist trigger)
- measurement.parameters: S1P5 antagonist EC50, CHO cells overexpressing human S1PR5 and Gq protein
Express your answer in µM, writing the number without its unit.

compound	measurement.units	EC50
CCOc1cc(NC(=O)NCc2cc(C)c(N3CCC(F)(F)C3)nn2)cc(Cl)n1	µM	3.77

Looking for the measured EC50 of CCOc1cc(NC(=O)NCc2cc(C)c(N3C[C@@H](C)O[C@@H](C)C3)nn2)cc(C)n1 , can you help? 6.61

Looking for the measured EC50 of CCOc1cc(NC(=O)NCc2cc(C)c(-c3cn(CC4COCCO4)nc3C(F)(F)F)nn2)cc(C(F)(F)F)n1 (stereo not shown) , can you help? 6.61

Looking for the measured EC50 of CCOc1nc(C)cc(NC(=O)NCc2cc(C)c(-c3cn(C)nc3C(F)(F)F)nn2)c1Cl , can you help? 6.61

----------
Listed compounds paired with reported EC50
- target.under.test: S1PR2 (Homo sapiens, UniProt O95136)
- Sequence (O95136 whole entry): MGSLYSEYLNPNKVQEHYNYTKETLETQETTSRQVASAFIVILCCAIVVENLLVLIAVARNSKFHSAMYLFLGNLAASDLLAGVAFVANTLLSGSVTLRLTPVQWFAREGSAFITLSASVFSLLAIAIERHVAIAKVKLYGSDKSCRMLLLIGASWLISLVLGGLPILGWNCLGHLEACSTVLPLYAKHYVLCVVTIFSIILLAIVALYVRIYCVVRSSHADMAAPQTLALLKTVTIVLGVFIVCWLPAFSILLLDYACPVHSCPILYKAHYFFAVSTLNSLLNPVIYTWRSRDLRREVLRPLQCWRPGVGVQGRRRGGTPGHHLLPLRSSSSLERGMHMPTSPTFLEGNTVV
- procedure.details: GTP-γS binding assay ([35S]GTPγS, S1P at EC80, S1PR2 membranes)
- measurement.parameters: membranes from stable cell line over expressing S1PR2, read-out: S1PR2 EC
For clarity, give the value followed by its unit.

Worked set:
compound	target.under.test	EC50
Cc1cc(CNC(=O)Nc2cc(C#N)nc(OCC(F)F)c2)nnc1-c1cn(C)nc1C(F)(F)F	S1PR2 (Homo sapiens, UniProt O95136)	89.7 nM
CCOc1cc(N/C(=N/C#N)NCc2cc(C)c(-c3cn(C)nc3C(F)(F)F)nn2)cc(C(F)(F)F)n1	S1PR2 (Homo sapiens, UniProt O95136)	62 nM

Looking for the measured EC50 of CCOc1nc(C)cc(NC(=O)NCc2cc(C)c(N3C[C@@H](C)O[C@@H](C)C3)nn2)c1Cl , can you help? 509 nM

Looking for the measured EC50 of CCOc1nc(C#N)cc(NC(=O)NCc2cc(C)c(-c3cn(C)nc3C(F)(F)F)nn2)c1C , can you help? 24.4 nM

Looking for the measured EC50 of Cc1cc(CNC(=O)Nc2cc(Cl)nc(OCC(F)F)c2)nnc1N1CC(S(C)(=O)=O)C1 , can you help? 469 nM

Looking for the measured EC50 of Cc1cc(CNC(=O)Nc2ccnc(C(F)(F)F)c2)nnc1-c1cn(C)nc1C(F)(F)F , can you help? 4650 nM

Looking for the measured EC50 of CCOc1cc(NC(=O)NCc2cc(C)c(-c3cn(C)nc3C(F)(F)F)nn2)cc(C)n1 , can you help? 242 nM

Looking for the measured EC50 of COCCOc1cc(NC(=O)NCc2cc(C)c(-c3cn(C)nc3C(F)(F)F)nn2)cc(Cl)n1 , can you help? 641 nM

----------
- target.under.test: human GPCR sphingosine 1-phosphate receptor 5 (S1PR5) (Homo sapiens, UniProt Q9H228)
- Sequence (Q9H228 whole entry): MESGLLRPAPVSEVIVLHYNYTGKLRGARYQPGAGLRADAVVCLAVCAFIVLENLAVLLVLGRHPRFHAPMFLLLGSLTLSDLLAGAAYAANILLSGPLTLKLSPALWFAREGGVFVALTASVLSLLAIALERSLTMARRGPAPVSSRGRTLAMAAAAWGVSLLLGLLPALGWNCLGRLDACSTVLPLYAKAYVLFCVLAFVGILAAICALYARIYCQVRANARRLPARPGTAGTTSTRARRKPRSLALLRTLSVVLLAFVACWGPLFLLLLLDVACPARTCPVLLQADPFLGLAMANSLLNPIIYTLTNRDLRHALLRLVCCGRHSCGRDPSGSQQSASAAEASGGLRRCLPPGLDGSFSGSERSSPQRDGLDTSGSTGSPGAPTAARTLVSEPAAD
- procedure.details: S1PR5 selectivity assay (Ca2+ flux, antagonist, S1PR5 specific agonist trigger)
- measurement.parameters: S1P5 antagonist EC50, CHO cells overexpressing human S1PR5 and Gq protein
Listed molecules paired with reported pEC50
Units for pEC50: none; it is -log10 of a concentration expressed in mol/L.

molecule	pEC50
Cc1cc(CNC(=O)Nc2cc(Cl)nc(OCC(F)F)c2)nnc1N1CCC(F)(CO)C1 (stereo not drawn) [Compound 90]	5.68

Looking for the measured pEC50 of Cc1cc(CNC(=O)Nc2cc(Cl)nc(OCC(F)F)c2)nnc1-c1cn(C)nc1C(F)(F)F [Compound 17] , can you help? 5.18

Looking for the measured pEC50 of CCOc1cc(NC(=O)NCc2cc(C)c(N3CCCc4nn(C)cc43)nn2)cc(C(F)(F)F)n1 [Compound 96] , can you help? 6.20

Looking for the measured pEC50 of CCOc1cc(NC(=O)NCc2cc(C)c(-c3cn(C)nc3C3CC3)nn2)cc(C(F)(F)F)n1 [Compound 54] , can you help? 5.34

----------
- System: HFL-1 cells
- procedure.details: IL8 assay (S1P induced IL-8 production)
- Type: cell-based
- measurement.parameters: Homo sapiens, HFL1; S1P (1 μM) induced IL-8, HFL-1 cells, without HSA
Listed compounds paired with reported pEC50
Units for pEC50: none; it is -log10 of a concentration expressed in mol/L.

Worked set:
compound	pEC50
Cc1cc(NC(=O)NCc2cc(C)c(-c3cn(C)nc3C(F)(F)F)nn2)c(C)c(OCC(F)F)n1	7.82
CCOc1nc(C)cc(NC(=O)NCc2cc(C)c(N3C[C@@H](C)O[C@@H](C)C3)nn2)c1Cl	6.99
CCOc1cc(NC(=O)NCc2cc(C)c(-c3cn(C)nc3C(F)(F)F)nn2)cc(C)n1	7.21
Cc1cc(CNC(=O)Nc2cc(N3CC(F)(F)C3)nc(C(F)(F)F)c2)nnc1-c1cn(C)nc1C(F)(F)F	8.34
CCOc1cc(NC(=O)NCc2cc(C)c(N3C[C@@H](C)O[C@@H](C)C3)nn2)cc(C)n1	6.12
CCOc1cc(NC(=O)NCc2cc(C)c(-c3cn(CC(C)O)nc3C(F)(F)F)nn2)cc(C(F)(F)F)n1 (stereo not shown)	8.34

Looking for the measured pEC50 of CCOc1cc(NC(=O)NCc2cc(C)c(-c3cn(C)nc3C(F)(F)F)nn2)cc(Cl)n1 , can you help? 8.82

Looking for the measured pEC50 of Cc1cc(CNC(=O)Nc2cc(OCC3(C(F)(F)F)CC3)nc(C(F)(F)F)c2)nnc1-c1cn(C)nc1C(F)(F)F , can you help? 6.91

Looking for the measured pEC50 of CCOc1cc(NC(=O)NC(C)c2cc(C)c(-c3cn(C)nc3C(F)(F)F)nn2)cc(Cl)n1 (stereo not shown) , can you help? 7.66

Looking for the measured pEC50 of Cc1cc(CNC(=O)Nc2cc(C(F)(F)F)nc(OCCO)c2C)nnc1-c1cn(C)nc1C(F)(F)F , can you help? 7.29

Looking for the measured pEC50 of COCC(C)Oc1cc(NC(=O)NCc2cc(C)c(-c3cn(C)nc3C(F)(F)F)nn2)cc(C(F)(F)F)n1 (stereo not shown) , can you help? 7.31

Looking for the measured pEC50 of CCOc1cc(NC(=O)NCc2nnc(-c3cn(C)nc3C(F)(F)F)c(C)c2C)cc(C(F)(F)F)n1 , can you help? 6.00

Looking for the measured pEC50 of CCOc1nc(C)cc(NC(=O)NCc2cc(C)c(-c3cn(C)nc3C(F)(F)F)nn2)c1C#N , can you help? 5.56

// provenance: patent US20190388421A1
